Answer each item with its documented inhibition.
# procedure.details: gst-4 reporter inhibition in live C. elegans – whole organism, uHTS, GFP/RFP fluorescence ratio, strain VP596, SKN-1 inhibitor project, primary screen (AID 624304)
# protocol.conditions: C. elegans VP596 Pgst-4::GFP/RFP ratio, acrylamide-induced, 24 h; at 21.8 µM; active compounds read high
Hit rate of the full screen: of about 360,000 compounds, about 1,800 (0.5%) were called active. Only a selection was taken, and actives are over-represented in it overall.
Numbers only, in %.

Consider the following illustrative entries.
inhibition recorded for this compound, Cn1cc(S(=O)(=O)N2CCN(c3ccc(F)cc3)CC2)c(=O)n(C)c1=O , is 1.81

Lab note: measured inhibition of CC(=O)N1CCN(c2ccccc2NC(=S)NC(=O)c2cc3ccccc3o2)CC1 was 6.86

Documented inhibition of CCN(CC)c1ccc2oc(=O)c(C)nc2c1 : 40.8

Per the record, CC1(C)Cc2ccccc2-c2nnc(-c3cccc(O)c3)n21 has inhibition of 27.7

Please fill in: inhibition reported for CC(C=Cc1ccccc1)=NNS(=O)(=O)c1ccc([N+](=O)[O-])cc1 = 21.6

Each of the following entries comes with a recorded value; kindly state inhibition for each.
1. Cc1onc(-c2ccccc2Cl)c1C(=O)N(Cc1ccc(N(C)C)cc1)C(C)C
2. Cc1onc(-c2ccccc2Cl)c1C(=O)NCCn1ccc2ccccc21
3. C[C@H]1CN(c2ccc(Br)cc2)C(=O)[C@@H]1CC(=O)Nc1ccc(Br)cc1
4. N#CC(=C1CCCC1)c1nc(-c2ccc(Cl)cc2)cs1
5. COC(=O)c1ccccc1N=NNc1ccc([N+](=O)[O-])cc1

Output line:
1: -21.5; 2: 39.7; 3: -1.36; 4: -17.2; 5: 20.6

Lab note: each compound below needs its inhibition filled in.
1. C=CCCC(=O)N1C[C@H]2CON(C)[C@H]2C[C@H]1c1cccc(Nc2ccccc2)c1
2. COC(=O)c1ccc(N(CC(=O)NC2CCCC2)C(=O)CNC(=O)c2ccco2)cc1
3. Cc1ccc2cc(CCNC(=O)c3c(-c4ccccc4Cl)noc3C)c(=O)[nH]c2c1

Output line:
1: 3.69; 2: 13.4; 3: 11.2

Data point: CCCCN1CC(C)(C)[C@H](CC(=O)Nc2ccc(Br)cc2)C1=O ; inhibition = 13

---

# procedure.details: gst-4 reporter inhibition in live C. elegans – whole organism, uHTS, GFP/RFP fluorescence ratio, strain VP596, SKN-1 inhibitor project, primary screen (AID 624304)
# protocol.conditions: C. elegans VP596 Pgst-4::GFP/RFP ratio, acrylamide-induced, 24 h; at 21.8 µM; active compounds read high
In all, about 360,000 compounds went through this assay and about 1,800 (0.5%) were called active. For the sample, actives were picked, then their nearest neighbours and some compounds at random.
measure: inhibition (%)
One number for each entry, in %.

Past entries and their recorded results:
Notebook: Cc1ccc(-c2nc(-c3ccncc3)no2)c(C)c1 , inhibition read as 37

Reported inhibition for C=C(C)Cn1c(N2CCN(CC)CC2)nc2c1c(=O)[nH]c(=O)n2C was 16.3

// sample COc1ccc(C(=O)NCc2ccc(C)cc2)cc1S(=O)(=O)N1CCCC1 , its inhibition was 0.996

// sample Cc1ccc(OCCNC(=O)CNC(=O)c2ccc(C)c(C)c2)cc1 , its inhibition was 5.58

// c1csc(-c2nc(-c3ccncc3)no2)c1 : inhibition value = 47.4

Please look at the following molecule next.
The reported inhibition of the molecule O=C1/C(=C/c2cccs2)CCC1C1CCCC1 (stereo unspecified) was 41.6
